Reference source for all entries: PubChem BioAssay (NCATS)

test: qHTS of pediatric cancer cell lines to identify multiple opportunities for drug repurposing: Primary screen for DAOY cells (AID 1347090); conditions: DAOY medulloblastoma viability, CellTiter-Glo luminescence, 48 h; series mostly up to 46 µM; note: nearly all actives have a fitted effect of over 55% in size
Records with an inconclusive call do not appear. Activity calls are given as the source filed them. Calls come from the whole dose curve; as a rule, active = well fitted cell-killing curve with a large enough effect; inconclusive = small, poorly fitted or top-dose-only effect; inactive = flat fitted curve, though single readings scatter.
Outcomes: active, inactive

[
  {
    "molecule": "Cc1cccc(Nc2ccncc2S(=O)(=O)NC(=O)NC(C)C)c1",
    "cat": "inactive"
  },
  {
    "molecule": "Cc1nnc(C(=O)NC(C)(C)c2nc(C(=O)NCc3ccc(F)cc3)c(O)c(=O)n2C)o1",
    "cat": "inactive"
  },
  {
    "molecule": "Nc1nc(N)nc(-c2cc(Cl)ccc2Cl)n1",
    "cat": "inactive"
  },
  {
    "molecule": "Cc1ncc([N+](=O)[O-])n1CCO",
    "cat": "inactive"
  },
  {
    "molecule": "O=C(N[C@H](CO)[C@H](O)c1ccc([N+](=O)[O-])cc1)C(Cl)Cl",
    "cat": "inactive"
  },
  {
    "molecule": "N[C@@H](C(=O)N[C@@H]1C(=O)N2C(C(=O)O)=C(Cl)CS[C@H]12)c1ccccc1",
    "cat": "inactive"
  },
  {
    "molecule": "COc1cccc(N(C)C(=S)Oc2ccc3c(c2)CCCC3)n1",
    "cat": "inactive"
  },
  {
    "molecule": "CC(C)(C#N)c1cc(Cn2cncn2)cc(C(C)(C)C#N)c1",
    "cat": "inactive"
  },
  {
    "molecule": "CC(=O)[C@H]1CC[C@H]2[C@@H]3CC=C4C[C@@H](O)CC[C@]4(C)[C@H]3CC[C@]12C",
    "cat": "inactive"
  },
  {
    "molecule": "CCOC(=O)c1ccc(OC(=O)CCCCCN=C(N)N)cc1",
    "cat": "inactive"
  },
  {
    "molecule": "C[C@]12C=CC(=O)C=C1CC[C@@H]1[C@@H]2C(=O)C[C@@]2(C)[C@H]1CC[C@]2(O)C(=O)CO",
    "cat": "inactive"
  },
  {
    "molecule": "NC(=O)N1c2ccccc2CC(=O)c2ccccc21",
    "cat": "inactive"
  },
  {
    "molecule": "CC[C@H](NC(C)C)[C@H](O)c1ccc(O)c2[nH]c(=O)ccc12",
    "cat": "inactive"
  },
  {
    "molecule": "NC(N)=NC(N)=NCCc1ccccc1",
    "cat": "active"
  },
  {
    "molecule": "COc1c(N2CCNC(C)C2)c(F)cc2c(=O)c(C(=O)O)cn(C3CC3)c12 (configuration not stated)",
    "cat": "inactive"
  },
  {
    "molecule": "Cc1cc(NS(=O)(=O)c2ccc(N)cc2)no1",
    "cat": "inactive"
  },
  {
    "molecule": "CCCCS(=N)(=O)CCC(N)C(=O)O (configuration not stated)",
    "cat": "inactive"
  },
  {
    "molecule": "OC(Cn1cncn1)(Cn1cncn1)c1ccc(F)cc1F",
    "cat": "inactive"
  },
  {
    "molecule": "CC1(C)[C@H](C(=O)O)N2C(=O)C[C@H]2S1(=O)=O",
    "cat": "inactive"
  },
  {
    "molecule": "Cc1oc(=O)oc1CN1CCN(c2cc3c(cc2F)c(=O)c(C(=O)O)c2n3C(C)S2)CC1 (configuration not stated)",
    "cat": "inactive"
  },
  {
    "molecule": "Clc1ccccc1CN1CCc2sccc2C1",
    "cat": "inactive"
  },
  {
    "molecule": "C[C@@H]1C[C@H]2[C@@H]3CCC4=CC(=O)C=C[C@]4(C)[C@@]3(Cl)[C@@H](O)C[C@]2(C)[C@@]1(OC(=O)c1ccco1)C(=O)CCl",
    "cat": "active"
  }
]
